Where do these numbers come from? They come from paper PMC6338552.

Target: His6-JNK2α1 (UniProt P45984-2 1-382)
Assay: fluorescence polarisation
TMR = 6-carboxytetramethylrhodamine
experimental_readout: Kd (µM)
Give just the number in µM; leave the unit off.

// query Kd lookup needed for {TMR}-RPKRPTTLNLF-OH [TMR-JIPtide] , thanks.
// result 6
